tested.target: C. armatus CYP51 (Coryphaenoides armatus)
measurement.description: Spectral titrations with azole-based ligands
measurement.label: Kd
Reply with the number and its unit after it.

Known results for compounds:
{"compound": "CC(=O)N1CCN(c2ccc(OCC3COC(Cn4ccnc4)(c4ccc(Cl)cc4Cl)O3)cc2)CC1 (stereo not drawn) [ketoconazole]", "Kd": "10 nM"}
{"compound": "CCC(C)n1ncn(-c2ccc(N3CCN(c4ccc(OCC5COC(Cn6cncn6)(c6ccc(Cl)cc6Cl)O5)cc4)CC3)cc2)c1=O (stereo not drawn) [itraconazole]", "Kd": "620 nM"}

Incoming: Using the record for C[C@@H](c1ncncc1F)[C@](O)(Cn1cncn1)c1ccc(F)cc1F [voriconazole] , report its Kd.
Outgoing: 610 nM

----------
tested.target: C. armatus CYP51 (Coryphaenoides armatus, UniProt Z9AQN8BZD8)
Sequence (Z9AQN8BZD8 6-449 limits assumed): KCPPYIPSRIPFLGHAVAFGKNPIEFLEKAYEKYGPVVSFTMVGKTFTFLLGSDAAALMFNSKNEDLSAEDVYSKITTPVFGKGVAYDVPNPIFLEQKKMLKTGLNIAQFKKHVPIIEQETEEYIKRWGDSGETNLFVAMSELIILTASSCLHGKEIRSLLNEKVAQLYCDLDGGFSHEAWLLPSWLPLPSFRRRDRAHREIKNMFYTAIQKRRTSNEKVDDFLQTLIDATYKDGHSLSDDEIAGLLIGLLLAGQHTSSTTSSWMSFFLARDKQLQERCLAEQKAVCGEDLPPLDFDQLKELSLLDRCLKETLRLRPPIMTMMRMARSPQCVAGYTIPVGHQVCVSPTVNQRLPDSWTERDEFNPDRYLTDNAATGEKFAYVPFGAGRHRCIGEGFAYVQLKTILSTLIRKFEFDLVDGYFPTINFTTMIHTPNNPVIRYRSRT
measurement.description: Spectral titrations with sterol substrates (type I spectral response)
Field: Kd. Provide a value for each of the molecules that follow.
Give bare numbers, in nM.

{"structure.string": "C=C(CC[C@@H](C)[C@H]1CC[C@@]2(C)C3=C(CC[C@]12C)[C@@]1(C)CC[C@H](O)[C@@H](C)[C@@H]1CC3)C(C)C", "units.text": "nM", "Kd": 560}

Shift focus to the following entry.
Incoming: Using the record for CC(C)=CCC[C@@H](C)[C@H]1CC[C@@]2(C)C3=C(CC[C@]12C)[C@@]1(C)CC[C@H](O)C(C)(C)[C@@H]1CC3 , report its Kd.
Outgoing: 770

----------
tested.target: C. armatus CYP51 (Coryphaenoides armatus)
measurement.description: Spectral titrations with sterol substrates (type I spectral response)
condition.description: read-out: Kd (apparent spectral dissociation constant); sterol substrate, P450 2 μM
measurement.label: pKd
Give bare numbers, as −log10 of the molar value.

Incoming: Using the record for C=C(CC[C@@H](C)C1CC[C@@]2(C)C3=C(CC[C@]12C)[C@@]1(C)CC[C@H](O)C(C)(C)C1CC3)C(C)C (stereo partly shown) , report its pKd.
Outgoing: 5.99
